This section presents compounds with their documented pIC50 values.
- Target under test: indoleamine 2,3-dioxygenase (IDO) (Homo sapiens)
- Sequence (P14902 whole entry): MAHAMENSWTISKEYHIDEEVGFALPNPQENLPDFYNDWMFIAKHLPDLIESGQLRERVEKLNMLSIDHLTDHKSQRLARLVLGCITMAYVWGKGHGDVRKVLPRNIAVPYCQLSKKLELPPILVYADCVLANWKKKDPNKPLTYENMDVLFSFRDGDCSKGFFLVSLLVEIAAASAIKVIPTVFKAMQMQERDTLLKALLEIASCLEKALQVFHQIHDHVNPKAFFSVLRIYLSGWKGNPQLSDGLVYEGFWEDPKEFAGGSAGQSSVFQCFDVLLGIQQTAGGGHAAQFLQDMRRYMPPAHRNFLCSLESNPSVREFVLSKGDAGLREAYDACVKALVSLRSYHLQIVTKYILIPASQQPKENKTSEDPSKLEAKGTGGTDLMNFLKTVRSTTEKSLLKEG
- Assay procedure: HeLa cell-based indoleamine 2,3-dioxygenase (IDO) assay (kynurenine production, IFNγ-stimulated)
- Study conditions: HeLa cells; potency class; read-out: Patent Potency Hela IC50 A < 10 nM, B > 10 nM, C > 100 nM
pIC50: −log10 of the molar value.
Quantity name: pIC50

[[record]]
compound = "CCC(NC(=O)c1ccc(OC)nc1)[C@H]1CC[C@@H](c2cc[nH]c(=O)c2C(F)F)CC1 (stereo partly drawn)"
result = "< 7.00"

[[record]]
compound = "CCC(NC(=O)c1ccc(OC)nc1)C1CCC(c2ccnc(F)c2C)CC1 (mixture of isomers) [Example 55]"
result = "> 8.00"

[[record]]
compound = "CC[C@@H](NC(=O)c1ccc(OC)nc1)[C@H]1CC[C@@H](c2ccn(C)c(=O)c2)CC1 (single isomer, unassigned) [Example 31d]"
result = "< 7.00"

[[record]]
compound = "CCC(NC(=O)c1ccc(=O)[nH]c1)C1CCC(c2ccnc(OC)c2C(F)F)CC1 (single isomer, unassigned)"
result = "< 7.00"

[[record]]
compound = "COC[C@H](NC(=O)c1ccc(OC)nc1)[C@H]1CC[C@@H](c2ccnc(OC)c2C(F)F)CC1 (single isomer, unassigned) [Example 51a]"
result = "> 8.00"

[[record]]
compound = "CCC(NC(=O)c1ccc(OC)nc1)C1CCC(c2cccc(=O)n2C)CC1 (single isomer, unassigned) [Example 32d]"
result = "< 7.00"

[[record]]
compound = "CCC(NC(=O)c1ccc(OC)nc1)C1CCC(c2ccnc(OC)c2F)CC1 (stereo not drawn)"
result = "< 7.00"

[[record]]
compound = "COCC(NC(=O)c1ccc(OC)nc1)C1CCC(c2ccnc3ccc(C(F)(F)F)cc23)CC1 (single isomer, unassigned) [Example 12b]"
result = "> 8.00"

[[record]]
compound = "CC[C@@H](NC(=O)c1ccc(OC)nc1)[C@H]1CC[C@@H](c2ccnc3ncccc32)CC1 (single isomer, unassigned) [Example 53c]"
result = "< 7.00"

